system: U2OS; assay: Multiplex assay against U2OS; format: toxicity, cell-based; details: human, 24 h, 1 µM, compound concentration 1 uM, replicate 1
Property Label: Population Apoptotic (%)

{"Molecule": "CCc1cccc(CC)c1NC(=O)c1nn(C)c2c1CCc1cnc(Nc3ccc(N4CCN(C)CC4)cc3OC)nc1-2", "Target Entity": "U2OS", "Property Label": "Population Apoptotic (%)", "Units Symbol": "%", "Measured Value": 94}
{"Molecule": "CCc1cccc(CC)c1NC(=O)c1nn(C)c2c1CCc1cnc(Nc3ccc(C(=O)NC4CCN(C)CC4)cc3OC(F)(F)F)nc1-2", "Target Entity": "U2OS", "Property Label": "Population Apoptotic (%)", "Units Symbol": "%", "Measured Value": 44}
{"Molecule": "Cn1nc(C(F)(F)F)cc1-c1cnc(N2CCc3cc(S(=O)(=O)Nc4c(F)cc(Cl)cc4F)cc(N4CCCC4=O)c32)nc1 [TP-020]", "Target Entity": "U2OS", "Property Label": "Population Apoptotic (%)", "Units Symbol": "%", "Measured Value": 20}
{"Molecule": "O=C(Nc1cccnn1)N1CCC(=Cc2cccc(Oc3ccc(C(F)(F)F)cn3)c2)CC1", "Target Entity": "U2OS", "Property Label": "Population Apoptotic (%)", "Units Symbol": "%", "Measured Value": 18}
{"Molecule": "O=C(Nc1ccc(-n2nc(-c3cccnc3)cc2C(F)(F)F)cn1)c1ccc(-c2ccccc2)c(F)c1 [BI 2049]", "Target Entity": "U2OS", "Property Label": "Population Apoptotic (%)", "Units Symbol": "%", "Measured Value": 60}
{"Molecule": "COc1cccc2cc(-c3nc([C@H]4CC[C@H](C(=O)O)CC4)n4ncnc(N)c34)[nH]c12 [OSI-027]", "Target Entity": "U2OS", "Property Label": "Population Apoptotic (%)", "Units Symbol": "%", "Measured Value": 29}
{"Molecule": "CN(C)C(=O)C(CCN1CCC(O)(c2ccc(Cl)cc2)CC1)(c1ccccc1)c1ccccc1.Cl [LOPERAMIDE HYDROCHLORIDE]", "Target Entity": "U2OS", "Property Label": "Population Apoptotic (%)", "Units Symbol": "%", "Measured Value": 60}
{"Molecule": "CCNc1cc(N[C@H]2CC[C@H](O)CC2)nc(Nc2ccc3c(ccn3Cc3ccccc3)c2)n1", "Target Entity": "U2OS", "Property Label": "Population Apoptotic (%)", "Units Symbol": "%", "Measured Value": 33}
{"Molecule": "Cl.Oc1ccc2c3c1O[C@H]1c4[nH]c5c(c4C[C@@]4(O)[C@@H](C2)N(CC2CC2)CC[C@]314)C[C@@]1(O)[C@H]2Cc3ccc(O)c4c3[C@@]1(CCN2CC1CC1)[C@H]5O4", "Target Entity": "U2OS", "Property Label": "Population Apoptotic (%)", "Units Symbol": "%", "Measured Value": 30}
{"Molecule": "CCOC(=O)c1c(C)[nH]c2ccc3c(c12)CN1CCc2cc(OC)ccc2C1O3 (centres undefined)", "Target Entity": "U2OS", "Property Label": "Population Apoptotic (%)", "Units Symbol": "%", "Measured Value": 41}
{"Molecule": "O=C(Nc1ccc(-c2ccnc(Nc3ccc(N4CCOCC4)cc3)n2)cc1)[C@@H]1CCCN1", "Target Entity": "U2OS", "Property Label": "Population Apoptotic (%)", "Units Symbol": "%", "Measured Value": 41}
{"Molecule": "CN1C2CCC1CC(OC(c1ccc(F)cc1)c1ccc(F)cc1)C2.Cl (centres undefined)", "Target Entity": "U2OS", "Property Label": "Population Apoptotic (%)", "Units Symbol": "%", "Measured Value": 50}
{"Molecule": "CCCn1c(=O)c2[nH]c(-c3cnn(Cc4cccc(C(F)(F)F)c4)c3)nc2n(CC)c1=O [GS 6201]", "Target Entity": "U2OS", "Property Label": "Population Apoptotic (%)", "Units Symbol": "%", "Measured Value": 27}
{"Molecule": "CCN1CCN(Cc2ccc(Nc3ncc(F)c(-c4cc(F)c5nc(C)n(C(C)C)c5c4)n3)nc2)CC1.CS(=O)(=O)O", "Target Entity": "U2OS", "Property Label": "Population Apoptotic (%)", "Units Symbol": "%", "Measured Value": 53}
{"Molecule": "Cl.O=c1c2cccn2c2ccccc2n1CCCN1CCC(c2ccc(Cl)cc2)CC1", "Target Entity": "U2OS", "Property Label": "Population Apoptotic (%)", "Units Symbol": "%", "Measured Value": 55}
{"Molecule": "CCOc1cc(C(=O)N2CCC(N3CCN(C)CC3)CC2)ccc1Nc1ncc2c(n1)N(C1CCCC1)c1ccccc1C(=O)N2C", "Target Entity": "U2OS", "Property Label": "Population Apoptotic (%)", "Units Symbol": "%", "Measured Value": 50}
{"Molecule": "CCn1cc(-c2ccnc3[nH]c(-c4cccc(CN(C)C)c4)cc23)c(-c2ccc(NC(=O)N(C)C)cc2)n1 [GSK-1070916]", "Target Entity": "U2OS", "Property Label": "Population Apoptotic (%)", "Units Symbol": "%", "Measured Value": 38}
{"Molecule": "CCCS(=O)(=O)c1nc(NC2CC2)cc(-c2ccc3c(ccn3C3CC(C)(C)NC(C)(C)C3)c2)n1", "Target Entity": "U2OS", "Property Label": "Population Apoptotic (%)", "Units Symbol": "%", "Measured Value": 50}
{"Molecule": "CNC(=O)c1ccc(Nc2nc(OC3CCCC3)c3c(-c4ccc5nc(C)oc5c4)c[nH]c3n2)c(OC)c1", "Target Entity": "U2OS", "Property Label": "Population Apoptotic (%)", "Units Symbol": "%", "Measured Value": 89}
